# measured-target: MK2 (Homo sapiens)
# procedure-text: MK2 degradation in human SW1353 cells (MSD, 24 h)
# Format: cell-based
# Set-up: endogenous in cells; host or cells: SW-1353 (ATCC HTB-94)
# stated-conditions: read-out: MK2 MSD SW 1353 24 h Dmax %
Reported Dmax values follow for various compounds

Recorded results for 4 compounds are shown here.
Cn1c(=O)n(C2CCC(=O)NC2=O)c2ccc(N3CCC(CN4CCN(c5ccc(-c6cc(-c7cc8c([nH]7)CCNC8=O)ccn6)cn5)CC4)CC3)cc21 (centres unmarked)    > 75%
C[C@@H]1CNc2c(sc3ccc4nc(-c5cncc(C6CCN(CCCCCCCCc7cccc8c7n(C)c(=O)n8C7CCC(=O)NC7=O)CC6)c5)ccc4c23)C(=O)N1 (some centres unmarked)    > 75%
C[C@@H]1CNc2c(sc3ccc4nc(-c5cncc(N6CCN(CC7CCN(c8cccc9c8n(C)c(=O)n9C8CCC(=O)NC8=O)CC7)CC6)c5)ccc4c23)C(=O)N1 (some centres unmarked)    > 75%
C[C@@H]1CNc2c(sc3ccc4nc(-c5ccnc(N6CCN(CC7CCN(c8ccc9c(c8)n(C)c(=O)n9C8CCC(=O)NC8=O)CC7)CC6)c5)ccc4c23)C(=O)N1 (some centres unmarked)    > 75%

Below: the item to evaluate.
Exercise: Need Dmax of CN1CC2(CNC(=O)c3c2[nH]c2c3CCc3cnc(-c4ccc(CN5CCC(OCC#Cc6cccc7c6n(C)c(=O)n7C6CCC(=O)NC6=O)CC5)cc4F)cc3-2)C1 (centres unmarked) , thanks.
Key: < 50%

###

# measured-target: MK2 (Homo sapiens, UniProt P49137)
# Sequence (P49137 whole entry): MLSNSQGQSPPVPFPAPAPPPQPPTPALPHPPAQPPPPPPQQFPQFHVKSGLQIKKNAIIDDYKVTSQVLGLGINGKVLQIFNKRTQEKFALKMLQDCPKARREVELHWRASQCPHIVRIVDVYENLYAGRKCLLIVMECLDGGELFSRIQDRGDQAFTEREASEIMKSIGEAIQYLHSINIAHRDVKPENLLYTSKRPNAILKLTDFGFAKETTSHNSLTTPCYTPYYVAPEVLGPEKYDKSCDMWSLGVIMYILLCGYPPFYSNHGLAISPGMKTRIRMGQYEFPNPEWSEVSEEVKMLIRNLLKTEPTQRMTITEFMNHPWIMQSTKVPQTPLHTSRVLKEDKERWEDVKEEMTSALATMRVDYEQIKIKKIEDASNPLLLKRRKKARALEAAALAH
# procedure-text: MK2 degradation in human THP-1 monocytic cells (MSD, 24 h)
# Assay type: cell-based
# Set-up: endogenous in cells
# stated-conditions: THP-1, THP-1 cells
measured-property: Dmax

Past entries and their recorded results:
Cn1c(=O)n(C2CCC(=O)NC2=O)c2ccc(N3CCC(CN4CCN(c5ccc(-c6cc(-c7cc8c([nH]7)CCNC8=O)ccn6)cn5)CC4)CC3)cc21 (centres unmarked)    > 75%
Cn1c(=O)n(C2CCC(=O)NC2=O)c2cccc(CCCCCCN3CC4(CCN(c5ccc6c(c5)Cn5cc(-c7ccc(F)cc7)cc5-c5nccn5-6)C4)C3)c21 (centres unmarked)    < 50%
C[C@@H]1CNc2c(sc3ccc4nc(-c5cccc(C#CCCNC(=O)COCCOCCOCCOCCc6ccc7c(c6)n(C)c(=O)n7C6CCC(=O)NC6=O)c5)ccc4c23)C(=O)N1 (some centres unmarked)    > 75%
C[C@@H]1CNc2c(sc3ccc4nc(-c5cc(N6CCN(CCCCCCCCc7cccc8c7n(C)c(=O)n8C7CCC(=O)NC7=O)CC6)ccc5F)ccc4c23)C(=O)N1 (some centres unmarked)    50 to 75%

// below: Dmax requested for another molecule
Exercise: Using the record for C[C@@H]1CNc2c(sc3ccc4nc(N5CCN(C6CC7(CCN(c8cccc9c8n(C)c(=O)n9C8CCC(=O)NC8=O)CC7)C6)CC5)ccc4c23)C(=O)N1 (some centres unmarked) , report its Dmax.
Key: > 75%

###

# measured-target: MK2 (Homo sapiens, UniProt P49137)
# procedure-text: MK2 degradation in human SW1353 cells (MSD, 24 h)
# Format: cell-based
# Set-up: endogenous in cells; host or cells: SW-1353 (ATCC HTB-94)
# stated-conditions: read-out: MK2 MSD SW1353 degradation 24 h GMean External Abs DC50
measured-property: DC50

Here's what some known entries look like.
Cn1c(=O)n(C2CCC(=O)NC2=O)c2ccc(N3CC(CN4CCN(c5ccc(-c6cc(-c7cc8c(s7)CCNC8=O)ccn6)cc5)CC4)C3)cc21 (centres unmarked)    > 100 nM
C[C@@H]1CNc2c(sc3ccc4nc(-c5cnc(N6CCC(CN7CCN(c8ccc9c(c8)n(C)c(=O)n9C8CCC(=O)NC8=O)CC7)CC6)nc5)ccc4c23)C(=O)N1 (some centres unmarked)    < 1 nM
Cn1c(=O)n(C2CCC(=O)NC2=O)c2cccc(N3CCC(CN4CCN(c5ccc(-c6cc(-c7cc8c([nH]7)CCNC8=O)ccn6)cc5)CC4)CC3)c21 (centres unmarked)    1 to 10 nM
C[C@@H]1Cc2oc(-c3ccnc(-c4ccc(N5CCN(CC6CN(c7ccc8c(c7)n(C)c(=O)n8C7CCC(=O)NC7=O)C6)CC5)nc4)c3)cc2C(=O)N1 (some centres unmarked)    < 1 nM

Exercise: Would you mind telling me what DC50 value was observed for Cn1c(=O)n(C2CCC(=O)NC2=O)c2cccc(N3CCC(CN4CCN(c5ccc(-c6cc(-c7cc8c([nH]7)CCNC8=O)ccn6)cn5)CC4)CC3)c21 (centres unmarked) ?
Key: < 1 nM

Hey, just so you know, these numbers are from patent US20230135894A1.
